Values compiled from patent US20230277483A1.

- System: Human MDM
- Measurement description: Anti-inflammatory miR expression after Pg-LPS challenge
- Type: cell-based
- Measurement setup: 24 hours after Pg-LPS challenge
Property: anti-inflammatory miRs (miR-200c, 146a, and 21)

>>> print(df.to_string())
                                   molecule  endpoint_value
0  O=C(O)CCCCCO [HCA, 6-hydroxycaproic acid]      upregulate
1      O=C(O)CC(O)C(=O)O (stereo not shown)      upregulate
2  NC(=O)c1ncn([C@@H]2O[C@H](CO)[C@@H](O)[C@H]2O)c1N      upregulate
3  O=C(O)C(O)Cc1ccc(O)cc1 (stereo not shown) [HPLA, 4-hydroxyphenyllactic acid]      upregulate
